Tested on: barnyardgrass
Assay: Test B pre-/postemergence herbicide test
Format: in vivo, Echinochloa crus-galli
Conditions: preemergence, 125 g ai/ha; 0 to 100 scale, 0 is no effect, 100 is complete control
quantity kind: Plant response rating, Barnyardgrass

| molecule | quantity kind | endpoint result |
| --- | --- | --- |
| C=CCn1nc(C(C)(C)C)cc1C(=O)Nc1cccc(C(=O)NCC)c1 [Compound 56] | Plant response rating, Barnyardgrass | 50 |
| CCn1nc(C(C)(C)C)cc1C(=O)Nc1cccc2c1CCN(C1CCCC1)C2=O [Compound 66] | Plant response rating, Barnyardgrass | 0 |
| CC(=NO)c1cccc(NC(=O)c2cc(C(C)(C)C)nn2C)c1 [Compound 107] | Plant response rating, Barnyardgrass | 0 |
| CCOC(=O)c1ccnc(NC(=O)c2cc(C(C)(C)C)nn2CC)c1 [Compound 157] | Plant response rating, Barnyardgrass | 0 |
| CCn1nc(C(C)(C)C)cc1C(=O)Nc1cccc(OCCCF)c1 [Compound 138] | Plant response rating, Barnyardgrass | 10 |
| CCOC(=O)c1cc(NC(=O)c2cc(C(C)(C)C)nn2CC)c(F)cc1OC [Compound 76] | Plant response rating, Barnyardgrass | 80 |
| Cn1nc(C(C)(C)C)cc1C(=O)Nc1cccc(C#N)c1 [Compound 121] | Plant response rating, Barnyardgrass | 0 |

----------
This section presents compounds with their documented Pigweed plant response rating values.
Test system: redroot pigweed
Experiment: Test A pre-/postemergence herbicide test
Assay type: in vivo, Amaranthus retroflexus
Details: preemergence, 500 g ai/ha; visual injury, 0 to 100 scale (0 no effect, 100 complete control)
quantity kind: Pigweed plant response rating

| molecule smiles | endpoint result |
| --- | --- |
| CCNC(=O)c1ccc(F)c(NC(=O)c2cc(C3(C)CC3)nn2CC)c1 | 95 |
| CCN(C)C(=O)c1ccc(F)c(NC(=O)c2cc(C(C)(C)C)nn2CC)n1 | 15 |
| CCNC(=O)c1cccc(NC(=O)c2nn(C3CCCC3)nc2CC)c1 | 25 |
| CCc1nc(C(C)(C)C)sc1C(=O)Nc1cccc(C(=O)NCC2CC2)c1 | 100 |
| CCNC(=O)c1ccc(F)c(NC(=O)c2cc(C(C)(C)C)nn2CC)n1 | 85 |
| C#CCNC(=O)c1cccc(NC(=O)c2cc(C(C)(C)C)nn2CC)n1 | 85 |
| C#CCNC(=O)c1cccc(NC(=O)c2sc(C(C)(C)C)nc2CC)c1 | 100 |
| CCCCOc1cccc(NC(=O)c2cc(C(C)(C)C)nn2CC)c1 | 60 |
| CCOc1cccc(NC(=O)c2cn(C(C)(C)C)nc2C)c1 | 25 |

----------
This section presents molecules with their documented Goosegrass plant response rating values.
Test system: goosegrass
Test: Test C pre-/postemergence herbicide test
Format: in vivo, Eleusine indica
Details: Preemergence, 500 g ai/ha; scale 0 to 100, 0 no effect, 100 complete control

| molecule smiles | Goosegrass plant response rating |
| --- | --- |
| CCN(CC)C(=O)c1ccnc(NC(=O)c2cc(C(C)(C)C)nn2CC)c1 | 95 |
| CCNC(=O)c1cccc(NC(=O)c2cc(C(C)(C)C)nn2CC)n1 | 80 |
| CCNC(=O)c1cccc(NC(=O)c2cc(C(C)(C)C)nn2CC(F)(F)F)c1 | 90 |
| CCN1CCc2c(NC(=O)c3cc(C(C)(C)C)nn3CC)cccc2C1=O | 90 |
| C=Cn1nc(C(C)(C)C)cc1C(=O)Nc1cccc(C(=O)N(CC)CC)c1 | 100 |

----------
Tested on: morningglory
Test: Test B pre-/postemergence herbicide test
Type: in vivo, Ipomoea coccinea
Details: Postemergence, 500 g ai/ha; scale 0 (no effect) to 100 (complete control)

| compound | measured on | Morningglory plant response rating |
| --- | --- | --- |
| C=CCNC(=O)c1ccc(F)c(NC(=O)c2cc(C(C)(C)C)nn2CC)c1 [Compound 430] | morningglory | 70 |
| Cc1nn(C(C)(C)C)nc1C(=O)Nc1cccc(C(=O)N2CC=CC2)n1 [Compound 441] | morningglory | 0 |
| CCN(C)C(=O)c1cccc(NC(=O)c2nn(C(C)C)nc2C)c1 [Compound 407] | morningglory | 60 |
| CCc1nn(C(C)C)nc1C(=O)Nc1cccc(C(=O)N2CCCCC2)c1 [Compound 385] | morningglory | 80 |
| C=CCNC(=O)c1cccc(NC(=O)c2nn(C(C)C)nc2CC)c1 [Compound 382] | morningglory | 60 |
| CN(C)C(=O)c1cccc(NC(=O)c2nn(C(C)(C)C)nc2Br)c1 [Compound 429] | morningglory | 80 |
| CCNC(=S)c1cccc(NC(=O)c2nn(C(C)(C)C)nc2C)c1 [Compound 420] | morningglory | 90 |
| C=CCN(CC=C)C(=O)c1cccc(NC(=O)c2nn(C(C)(C)C)nc2CC)c1 [Compound 415] | morningglory | 40 |
| CCc1nn(C(C)C)nc1C(=O)Nc1cccc(C(=S)N(C)C)c1 [Compound 409] | morningglory | 70 |
| CCc1nn(C(C)(C)CC)nc1C(=O)Nc1cc(C(=O)N2CC=CC2)ccc1F [Compound 371] | morningglory | 70 |

----------
System: soybean
Assay: Test C pre-/postemergence herbicide test
Format: in vivo, Glycine max
Conditions: 250 g ai/ha; scale 0-100; preemergence
Description: […]
This section presents compounds with their documented Plant response rating, Soybean values.

| compound | measured on | Plant response rating, Soybean |
| --- | --- | --- |
| C=CCNC(=O)c1cccc(NC(=O)c2cc(C(C)(C)C)nn2C)n1 | soybean | 10 |
| CCNC(=O)c1ccc(F)c(NC(=O)C2CC(C(C)(C)C)=NN2CC)c1 (racemic) | soybean | 50 |
| CCc1nn(C(C)C)nc1C(=O)Nc1cccc(C(=O)N(C)CC)c1 | soybean | 95 |
| CCNC(=O)c1ccc(F)c(NC(=O)c2cn(C(C)(C)C)nc2CC)c1 | soybean | 50 |

----------
Test system: giant foxtail
Test: Test B pre-/postemergence herbicide test
Format: in vivo, Setaria faberi
Settings: postemergence, 500 g ai/ha; visual rating, scale 0 (no effect) to 100 (complete control)
quantity kind: Foxtail, Giant plant response rating

| molecule smiles | measured on | endpoint result |
| --- | --- | --- |
| CCn1nc(C(C)(C)C)cc1C(=O)Nc1cccc(OCCCF)c1 | giant foxtail | 30 |
| CC(=O)c1cccc(NC(=O)c2sc(C(C)(C)C)nc2C)c1 | giant foxtail | 0 |
| CCn1nc(C(C)(C)C)cc1C(=O)Nc1cc(C(=O)NCC2CC2)ccn1 | giant foxtail | 30 |
| CCc1nc(C(C)(C)C)sc1C(=O)Nc1cccc(C(=O)NC(C)(C)C)n1 | giant foxtail | 20 |
| CCc1nn(C(C)(C)C)cc1C(=O)Nc1cccc(C(C)=O)c1 | giant foxtail | 10 |

----------
Test system: velvetleaf
Experiment: Test C pre-/postemergence herbicide test
Format: in vivo, Abutilon theophrasti
Settings: 125 g ai/ha; scale 0 (no effect) to 100 (complete control); visual, 12 to 14 days; preemergence
Source text: […]
This section presents molecules with their documented Plant response rating, Velvetleaf values.

| molecule | Plant response rating, Velvetleaf |
| --- | --- |
| C=CCn1nc(C(C)(C)C)cc1C(=O)Nc1cccc(C(=O)NCC)c1 [Compound 56] | 35 |
| CC(=O)c1cccc(NC(=O)c2cc(C(C)(C)C)nn2CCF)c1 [Compound 128] | 100 |
| CCc1nc(C(C)(C)C)sc1C(=O)Nc1cccc(C(=O)NCC2CC2)c1 [Compound 212] | 100 |
| CCN(CC)C(=O)c1cccc(NC(=O)c2sc(C(C)(C)C)nc2C)c1 [Compound 199] | 70 |
| CCCCOc1cccc(NC(=O)c2cc(C(C)(C)C)nn2CC)c1 [Compound 137] | 10 |

----------
This section presents compounds with their documented Wheat plant response rating values.
Test system: wheat
Assay: Test B postemergence herbicide test
Type: in vivo, Triticum aestivum
Set-up: key: 0 = no effect, 100 = complete control
Settings: 500 g ai/ha; scale 0 to 100, 0 no effect, 100 complete control; preemergence

| compound | Wheat plant response rating |
| --- | --- |
| CCc1nn(C(C)C)nc1C(=O)Nc1cccc(C(=O)N(C)CC)c1 [Compound 386] | 100 |
| CCOC(=O)c1cccc(NC(=O)c2nn(C(C)C)nc2C)c1 [Compound 397] | 0 |
| Cc1nn(C(C)(C)C)nc1C(=O)Nc1cc(C(=O)N(C)C)ccc1F [Compound 378] | 100 |
| Cc1nn(C(C)(C)C)nc1C(=O)Nc1cccc(C(=O)N2CC=CC2)n1 [Compound 441] | 30 |
| CCN(C(C)=O)C(=O)c1ccc(F)c(NC(=O)c2cc(C(C)(C)C)nn2CC)c1 [Compound 413] | 80 |
| CCc1nn(C(C)C)nc1C(=O)Nc1cccc(C(=S)N(C)C)c1 [Compound 409] | 100 |

Data provenance is patent US20060069132A1.
